test system: 55 isolates of A. baumannii; assay: MIC, broth microdilution; assay type: cell-based, Acinetobacter baumannii; conditions: Acinetobacter baumannii (55); CLSI breakpoints; marked c: breakpoints for β-lactam alone
OBSERVABLE: CLSI MIC interpretation I (intermediate)
The reply should read as a number followed by its unit.

{"STRUCTURE_STRING": "CC(C)(O/N=C(\\C(=O)N[C@@H]1C(=O)N2C(C(=O)[O-])=C(C[N+]3(CCNC(=O)c4ccc(O)c(O)c4Cl)CCCC3)CS[C@H]12)c1csc(N)n1)C(=O)O", "OBSERVABLE": "CLSI MIC interpretation I (intermediate)", "DATA_VALUE": "3.6%"}

Form field CLSI MIC interpretation I (intermediate), entry C[C@H]1COc2c(N3CCN(C)CC3)c(F)cc3c(=O)c(C(=O)O)cn1c23 : 10.9%

Form field CLSI MIC interpretation I (intermediate), entry CC(C)(O/N=C(\C(=O)N[C@@H]1C(=O)N2C(C(=O)[O-])=C(C[n+]3ccccc3)CS[C@H]12)c1csc(N)n1)C(=O)O : 1.8%

Taken from paper PMC11620503.
